Test: acute toxicity, single oral administration to mice
Details: mouse, in vivo, p.o.
Item-by-item account of LD50
property name: LD50

chemical structure | assay result
NCc1nnc2n1-c1ccc(Cl)cc1C(c1ccccc1F)=CC2 | 1000 to 2000 mg/kg
Cc1nnc2n1-c1ccc(Cl)cc1C(c1ccccc1F)=CC2 | > 5000 mg/kg
O=c1[nH]nc2n1-c1ccc(Cl)cc1C(c1ccccc1F)=CC2 | > 5000 mg/kg
